Assay: chemical genetic growth profiling, strain panel (AID 1159580);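 further: tested at 20 µM; growth read once vehicle control cultures reached saturation at 30 °C; 1 = growth at the plate median or of vehicle wells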
Conditions: S. cerevisiae deletion strains, growth OD, locus YER155C, strain BEM2, active compounds read low
Hit rate of the full screen: of about 5,500 compounds, about 2,000 (36%) were called active. Roughly 18% stayed inconclusive and do not appear here. The list shows a part of the results.
Measurement Name: normalized growth
No unit in the answer, only the number.

Entry COc1cc(-c2oc3cc(O)ccc3c(=O)c2O)cc(OC)c1OC ; normalized growth = 1.02

Recorded normalized growth (molecule Cc1cc(C(C)(C)C)c(O)c(C)c1CC1=NCCN1 ): 0.996

Sample Cc1ccc(N(CC2=NCCN2)c2cccc(O)c2)cc1 ; normalized growth observed: 1.01

Data point: O=c1c(O)c(-c2ccc(O)c(O)c2)oc2cc(O)ccc12 ; normalized growth = 1.02

For reference, reported normalized growth for C=C(C)[C@@H]1CC[C@]2(CO)CC[C@]3(C)[C@H](CCC4[C@@]5(C)CC[C@H](O)C(C)(C)C5CC[C@]43C)C12 (stereo not given in full) stands at 0.992

====

Assay: chemical genetic growth profiling, strain panel (AID 1159580)
Conditions: S. cerevisiae deletion strains, growth OD, locus YHR013C, strain ard1
About 2,000 (36%) of roughly 5,500 compounds were called active. Another 18% or so got no clear call; they are omitted. Cut-off read from the data, not from the text of the source: active = normalized growth mostly below about 0.91 (no sharp cut-off); inconclusive = no clear call, values can overlap the other calls; inactive = mostly above about 0.92. Some of the results follow.
Your reply should match one of these outcome classes. active, inactive

Short answer needed: outcome of this test for Cc1onc(-c2ccccc2Cl)c1C(=O)N[C@@H]1C(=O)N2[C@@H]1SC(C)(C)[C@@H]2C(=O)O ?
inactive

Look up the recorded call for CC1(C)S[C@@H]2[C@H](NC(=O)[C@H](C(=O)O)c3cccs3)C(=O)N2[C@H]1C(=O)O in this test.
inactive

I'd appreciate the recorded outcome for CC1(C)S[C@@H]2[C@H](NC(=O)Cc3ccccc3)C(=O)N2[C@H]1C(=O)O from this test.
inactive

Query: recorded result category for Cc1onc(-c2ccccc2)c1C(=O)NC1C(=O)N2[C@@H]1SC(C)(C)[C@@H]2C(=O)O (stereo partly specified) in this test
active

For this compound, state the assay outcome: CCCc1nc2c(C)cc(-c3nc4ccccc4n3C)cc2n1Cc1ccc(-c2ccccc2C(=O)O)cc1
inactive

Returns: the outcome recorded for O=C(OC[C@H]1O[C@H](OC(=O)c2cc(O)c(O)c(OC(=O)c3cc(O)c(O)c(O)c3)c2)[C@H](OC(=O)c2cc(O)c(O)c(OC(=O)c3cc(O)c(O)c(O)c3)c2)[C@@H](OC(=O)c2cc(O)c(O)c(OC(=O)c3cc(O)c(O)c(O)c3)c2)[C@@H]1OC(=O)c1cc(O)c(O)c(OC(=O)c2cc(O)c(O)c(O)c2)c1)c1cc(O)c(O)c(OC(=O)c2cc(O)c(O)c(O)c2)c1 in this assay.
active

====

Assay: chemical genetic growth profiling, strain panel (AID 1159580)
Conditions: S. cerevisiae deletion strains, growth OD, locus YEL003W, strain gim4, active compounds read low
In all, about 5,500 compounds went through this assay and about 2,000 (36%) were called active. About 18% were inconclusive and are not listed. The list shows a part of the results.
So basically, if normalized growth comes in under 1 it's condition met, and if it's 1 or more it's condition not met.

Say whether its normalized growth is strictly beneath 1. Entry: COc1ccc(-c2oc3ccccc3c(=O)c2O)cc1OC
condition met

Does the reported normalized growth of the following compound sit strictly below 1? CC(=O)O[C@@H]1CC[C@]2(C)C3CC[C@]4(C)C(=O)CCC4C3CC[C@H]2C1 (some centres undefined)
condition met

hey, is normalized growth for CC(=O)O[C@H]1CC[C@]2(C)C3CC[C@@]4(C)C(CC5O[C@@]6(CCC(C)CO6)[C@@H](C)C54)C3CC[C@@H]2C1 (some centres undefined) lower than 1 or not?
condition not met

Hello, I'm reviewing records and need to know if normalized growth of COc1cc(-c2oc3cc(O)ccc3c(=O)c2O)ccc1O is below 1. Could you check?
condition met

====

Assay: chemical genetic growth profiling, strain panel (AID 1159580)
Conditions: S. cerevisiae deletion strains, growth OD, locus YCL016C, strain dcc1, active compounds read low
In all, about 5,500 compounds went through this assay and about 2,000 (36%) were called active. About 18% were inconclusive and are not listed. This is one part of the list.
Threshold 1: normalized growth strictly smaller gives T, otherwise F.

is_below(normalized growth, 1) for O=C(O)c1cc(=O)c2cccc(O)c2[nH]1 ?
F

Regarding CCN(CC)CCNC(=O)c1cc(Cl)c(N)cc1OC , kindly confirm whether its normalized growth is beneath 1.
T

Below 1 on normalized growth? Entry CC(=O)[O][Hg][c]1ccccc1
T

Answer whether the molecule COc1ccc(C2C(=O)c3ccccc3C2=O)cc1 has normalized growth strictly less than 1
F

====

Can you tell me normalized growth for the items I'm about to list?
Assay: chemical genetic growth profiling, strain panel (AID 1159580);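 further: tested at 20 µM; growth read once vehicle control cultures reached saturation at 30 °C; 1 = growth at the plate median or of vehicle wells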
Settings: S. cerevisiae deletion strains, growth OD, locus YLR027C, strain aat2, active compounds read low
The whole screen tested about 5,500 compounds, of which about 2,000 (36%) were called active. Inconclusive results (about 18%) are left out. Some of the results follow.
Answer field: number only, no words.

# compound Cc1onc(-c2ccccc2)c1C(=O)NC1C(=O)N2[C@@H]1SC(C)(C)[C@@H]2C(=O)O (stereo not given in full) ; its normalized growth = 1.01

normalized growth reading for COc1cccc(OC)c1C(=O)N[C@@H]1C(=O)N2[C@@H]1SC(C)(C)[C@@H]2C(=O)O : 0.995

According to the records, this compound CC1(C)S[C@@H]2[C@H](NC(=O)[C@H](C(=O)O)c3cccs3)C(=O)N2[C@H]1C(=O)O displays normalized growth of 1.01

Sample CCNc1nc(Cl)nc(NCC)n1 ; normalized growth observed: 0.977

normalized growth in this record for Cc1onc(-c2ccccc2Cl)c1C(=O)N[C@@H]1C(=O)N2[C@@H]1SC(C)(C)[C@@H]2C(=O)O : 1.01

====

Test: chemical genetic growth profiling, strain panel (AID 1159580);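 further: tested at 20 µM; growth read once vehicle control cultures reached saturation at 30 °C; 1 = growth at the plate median or of vehicle wells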
Conditions: S. cerevisiae deletion strains, growth OD, locus YLR418C, strain cdc73, active compounds read low
In all, about 5,500 compounds went through this assay and about 2,000 (36%) were called active. Roughly 18% stayed inconclusive and do not appear here. Some of the results follow.
# if measured normalized growth < 1: Satisfied  # else: Not satisfied

API: query returns whether the compound falls strictly under 1 in normalized growth. Query: C[C@]12CCC(=O)C=C1CCC1C2C(=O)C[C@@]2(C)C1CC[C@]2(O)C(=O)CO (stereo not given in full)
Not satisfied

Find out if reported normalized growth for COc1c2occc2c(OC)c2c(=O)cc(C)oc12 is less than 1
Not satisfied

Dear reviewer, please state whether O=C(O)c1cc(=O)c2cccc(O)c2[nH]1 has normalized growth strictly beneath 1.
Not satisfied

Given C#C[C@]1(O)CCC2C3CCC4=Cc5oncc5C[C@]4(C)C3CC[C@@]21C (stereo not given in full) , is recorded normalized growth strictly lower than 1?
Satisfied

====

Assay: chemical genetic growth profiling, strain panel (AID 1159580);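 further: tested at 20 µM; growth read once vehicle control cultures reached saturation at 30 °C; 1 = growth at the plate median or of vehicle wells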
Settings: S. cerevisiae deletion strains, growth OD, locus YNL161W, strain CBK1
About 2,000 (36%) of roughly 5,500 compounds were called active. Not shown: some 18% with an inconclusive outcome. Rule as the data show it: active = normalized growth mostly below about 0.91 (no sharp cut-off); inconclusive = no clear call, values can overlap the other calls; inactive = mostly above about 0.92. The list shows a part of the results.
Returns: one label drawn from active, inactive

So what was the verdict on O=C(NNC(=S)Nc1ccc(Cl)cc1)c1ncc(C(F)(F)F)cc1Cl in this test?
inactive

Hi, sorry to bother you, what did the test record for CC(C)(C)C(=O)c1sc2sc(C(=O)C(C)(C)C)c(N)c2c1N ?
inactive

Fill in: this test's call for CC(=O)c1ccccc1C(=O)c1ccc(C(C)(C)C)cc1 is ___
inactive

Entry CC(C)(C)c1ccc(C(=O)NNC(=S)Nc2ccc(Cl)cc2)cc1 : call = ?
inactive

Per the records of this test, what outcome belongs to Cc1ccc(OCc2n[nH]c(=S)n2Cc2ccccc2)c2c1CCC2 ?
inactive

Could you check what this test reported for CS/C(Nc1cccc(C(F)(F)F)c1)=C(/C#N)S(=O)(=O)c1ccc(Cl)cc1 ?
inactive

# lookup: test call for COc1ccc(C2CC(c3ccc(C)cc3C)=NN2C(C)=O)cc1 (stereo unspecified)
inactive

What outcome does the record of this test show for N#C/C(=N/Nc1cccc(C(F)(F)F)c1)C(=O)c1csc(-c2cccnc2)n1 ?
inactive

Record lookup: outcome of this test for OC(CSc1ccccc1)CN1CCN(c2nc(-c3ccccc3)ns2)CC1 (stereo unspecified) ?
inactive

Record lookup: outcome of this test for Cc1ccc2nc(-c3ccc([N+](=O)[O-])o3)oc(=O)c2c1 ?
active

For O=C(Nc1cccnc1)c1cc2c(s1)-c1ccccc1CC2 , which call appears in the assay record?
inactive
